Readings of PBM binding z-score for the listed sequences
- Test system: PPARg:RXRa IVT, anti-PPARg (NR concentration 270 nM, RXRa partner concentration 90 nM)
- Protocol Text: PBM binding z-score (relative to random genomic background probes); higher = stronger binding; sequences stand for … in GC…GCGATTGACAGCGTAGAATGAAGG

Answered cases to consult:
| Macromolecule Sequence | Result |
| --- | --- |
| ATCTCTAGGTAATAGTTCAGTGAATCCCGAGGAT | 2.79 |
| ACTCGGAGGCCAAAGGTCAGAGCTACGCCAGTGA | 4.07 |
| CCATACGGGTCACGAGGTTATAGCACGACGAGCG | 5.41 |

Q: I have this sequence here, `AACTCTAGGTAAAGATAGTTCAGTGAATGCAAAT` , and I need its recorded PBM binding z-score.
A: 1.47

Q: I have this sequence here, `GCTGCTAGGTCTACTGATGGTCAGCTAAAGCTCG` , and I need its recorded PBM binding z-score.
A: -0.311

Q: I have this sequence here, `CTAACGAGGGCATGAGTTGATAGCAAATGCCGAT` , and I need its recorded PBM binding z-score.
A: 2.56

Q: I have this sequence here, `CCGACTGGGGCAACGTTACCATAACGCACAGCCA` , and I need its recorded PBM binding z-score.
A: 3.62

Q: I have this sequence here, `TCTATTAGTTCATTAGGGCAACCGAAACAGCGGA` , and I need its recorded PBM binding z-score.
A: 2.95

Q: I have this sequence here, `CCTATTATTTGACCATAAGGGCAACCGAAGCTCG` , and I need its recorded PBM binding z-score.
A: 1.15

Q: I have this sequence here, `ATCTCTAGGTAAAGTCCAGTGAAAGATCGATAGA` , and I need its recorded PBM binding z-score.
A: 1.54

Q: I have this sequence here, `ATAACGAGGGCACGCTGAGTTGATAGCAGAGTAG` , and I need its recorded PBM binding z-score.
A: 4.09

Q: I have this sequence here, `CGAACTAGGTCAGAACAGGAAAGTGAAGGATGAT` , and I need its recorded PBM binding z-score.
A: 6.78

* * *

- Test system: LXRb:RXRa (NR concentration 270 nM, RXRa partner concentration 90 nM)
- Protocol Text: PBM binding z-score (relative to random genomic background probes); higher = stronger binding; sequences stand for … in GC…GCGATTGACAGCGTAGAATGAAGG
Returns 1 (yes) if the recorded PBM binding z-score is greater than or equal to 2, and 0 (no) otherwise.

Consider the following illustrative entries.
| Macromolecule Sequence | Measurement Target | Answer Label |
| --- | --- | --- |
| CGTCCAAGGTCTGCAGGTCAGTGAAAGCGACGTG | LXRb:RXRa (NR concentration 270 nM, RXRa partner concentration 90 nM) | 0 (no) |
| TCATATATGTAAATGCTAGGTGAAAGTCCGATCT | LXRb:RXRa (NR concentration 270 nM, RXRa partner concentration 90 nM) | 0 (no) |
| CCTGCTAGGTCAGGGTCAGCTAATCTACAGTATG | LXRb:RXRa (NR concentration 270 nM, RXRa partner concentration 90 nM) | 1 (yes) |
| TCATATAGGTAAAGGTGAAACTCGAACGATATGA | LXRb:RXRa (NR concentration 270 nM, RXRa partner concentration 90 nM) | 0 (no) |
| TCTTGTAGCTCAAGCAGGTTAAGAAAGCCTGAGT | LXRb:RXRa (NR concentration 270 nM, RXRa partner concentration 90 nM) | 0 (no) |
| ATACCAAGGTGATCGTGAGGTCGTTTATACTAAC | LXRb:RXRa (NR concentration 270 nM, RXRa partner concentration 90 nM) | 0 (no) |
| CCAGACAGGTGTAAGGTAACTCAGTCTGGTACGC | LXRb:RXRa (NR concentration 270 nM, RXRa partner concentration 90 nM) | 0 (no) |
| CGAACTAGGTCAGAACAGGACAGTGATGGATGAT | LXRb:RXRa (NR concentration 270 nM, RXRa partner concentration 90 nM) | 0 (no) |
| CGTCCACGGTCAAAGGTCAGTGAAGAGATGACGG | LXRb:RXRa (NR concentration 270 nM, RXRa partner concentration 90 nM) | 1 (yes) |
| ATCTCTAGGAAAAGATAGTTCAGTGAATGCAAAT | LXRb:RXRa (NR concentration 270 nM, RXRa partner concentration 90 nM) | 0 (no) |

Q: Is PBM binding z-score for `GCATATAGGTGATACAAGGTGAAAGTCCGATTGT` at or above 2?
A: 0 (no)

Q: Is PBM binding z-score for `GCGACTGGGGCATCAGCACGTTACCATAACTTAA` at or above 2?
A: 0 (no)

* * *

- Test system: LXRa homodimer (NR concentration 270 nM)
- Protocol Text: PBM binding z-score (relative to random genomic background probes); higher = stronger binding; sequences stand for … in GC…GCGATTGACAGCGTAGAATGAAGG
Readings of PBM binding z-score for the listed sequences
Returns: the value as a bare number; no unit string appended.

Answered cases to consult:
| Macromolecule Sequence | Readout Name | Result |
| --- | --- | --- |
| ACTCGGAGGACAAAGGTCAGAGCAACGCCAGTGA | PBM binding z-score | 1.56 |
| CCACGGAGGACAGAAGGTCAGAGCTGTCCGCTTT | PBM binding z-score | -0.0316 |

Q: I have this sequence here, `GTACCAAGGTGAATAGGACGTTGATGAGTAGGCG` , and I need its recorded PBM binding z-score.
A: 0.103

Q: I have this sequence here, `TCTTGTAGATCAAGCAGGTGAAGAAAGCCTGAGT` , and I need its recorded PBM binding z-score.
A: -0.332

Q: I have this sequence here, `CAAACTAGGTCAAAGGTCTAAGTCGAGCCAACCA` , and I need its recorded PBM binding z-score.
A: 0.54

Q: I have this sequence here, `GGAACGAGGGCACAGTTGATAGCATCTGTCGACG` , and I need its recorded PBM binding z-score.
A: -0.684

* * *

- Tested on: THRa:RXRa (NR concentration 90 nM, RXRa partner concentration 90 nM)
- Protocol Text: PBM binding z-score (relative to random genomic background probes); higher = stronger binding; sequences stand for … in GC…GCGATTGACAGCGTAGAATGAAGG
Readout Name: PBM binding z-score
Returns: the value as a bare number; no unit string appended.

Answered cases to consult:
| Macromolecule Sequence | Measurement Target | PBM binding z-score |
| --- | --- | --- |
| CGTCCAAGGTCAATGGTCAGTGAAGAGATGACGG | THRa:RXRa (NR concentration 90 nM, RXRa partner concentration 90 nM) | 3.6 |
| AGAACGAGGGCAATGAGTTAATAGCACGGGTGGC | THRa:RXRa (NR concentration 90 nM, RXRa partner concentration 90 nM) | 0.999 |
| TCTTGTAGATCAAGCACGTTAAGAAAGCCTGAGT | THRa:RXRa (NR concentration 90 nM, RXRa partner concentration 90 nM) | -0.341 |

Q: I have this sequence here, `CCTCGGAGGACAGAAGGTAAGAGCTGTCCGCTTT` , and I need its recorded PBM binding z-score.
A: -0.0375

Q: I have this sequence here, `CATACAGGGTCAGCTACGCCAGAGTAGGGACGGC` , and I need its recorded PBM binding z-score.
A: 2.73

Q: I have this sequence here, `CGAACTAGGTCAGAACAGGACAGTGTAGGATGAT` , and I need its recorded PBM binding z-score.
A: 3.47

Q: I have this sequence here, `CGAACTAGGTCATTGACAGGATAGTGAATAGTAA` , and I need its recorded PBM binding z-score.
A: 2.57

Q: I have this sequence here, `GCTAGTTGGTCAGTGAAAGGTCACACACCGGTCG` , and I need its recorded PBM binding z-score.
A: 3.42

Q: I have this sequence here, `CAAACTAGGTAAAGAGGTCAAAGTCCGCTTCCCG` , and I need its recorded PBM binding z-score.
A: 3.75

Q: I have this sequence here, `AATACAGGGTCATCGTAGGCCAGAGTCCGCACAG` , and I need its recorded PBM binding z-score.
A: 4.68

Q: I have this sequence here, `GCTAGTTGGTCAGTAAAAGGTCACGCACCGGTCG` , and I need its recorded PBM binding z-score.
A: 3.75

Q: I have this sequence here, `ATACCAAGGTGATCGTGAGGTCGTTCATACTAAC` , and I need its recorded PBM binding z-score.
A: 3.38

Q: I have this sequence here, `ATCTCGAGGTAAAGTTCAGTGAAAGATCGATAGA` , and I need its recorded PBM binding z-score.
A: 1.71

Q: I have this sequence here, `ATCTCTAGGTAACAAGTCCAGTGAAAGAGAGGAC` , and I need its recorded PBM binding z-score.
A: 0.997

Q: I have this sequence here, `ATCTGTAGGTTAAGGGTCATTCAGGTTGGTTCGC` , and I need its recorded PBM binding z-score.
A: 3.69

Q: I have this sequence here, `TCGAGTAGGTTTCCAATGGGGCATTCAGCTTTCT` , and I need its recorded PBM binding z-score.
A: -0.683

Q: I have this sequence here, `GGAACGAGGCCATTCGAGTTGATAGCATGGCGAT` , and I need its recorded PBM binding z-score.
A: 2.23

Q: I have this sequence here, `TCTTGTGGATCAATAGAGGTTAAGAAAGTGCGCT` , and I need its recorded PBM binding z-score.
A: 2.23

Q: I have this sequence here, `CCAGACAGGTGCGAAGGTAACTCAGCCTCGATTA` , and I need its recorded PBM binding z-score.
A: -0.305

Each recorded value in this set is attributed to the supplement of paper PMC6555819.
